experiment: Equilibrium solubility of bazedoxifene ascorbate in 0.0005 M acetic acid at 37° C.; type: physicochemical; details: aqueous buffer, thermodynamic from solid, filtered 0.2 um, HPLC
measured.property: solubility thermodynamic at 18 h

-- ask Bench note: what solubility thermodynamic at 18 h did Cc1c(-c2ccc(O)cc2)n(Cc2ccc(OCCN3CCCCCC3)cc2)c2ccc(O)cc12 [bazedoxifene ascorbate] show?
-- reply 1660 µg/mL

Value source: patent US7504394B2
